Note to self: these molecules have IC50 reported for BTK (Homo sapiens, UniProt Q06187) in various publications.
Recorded Endpoint: IC50

> print(dat)
                                   molecule      data.value
1  C=CC(=O)Nc1cccc(-c2cc(-c3ccc(C(=O)Nc4cc(C5CC5)ccn4)cc3F)cc3cncnc23)c1        < 100 nM
2  COc1ccc(NC(=O)/C=C/CN(C)CCCCNC(=O)OC(C)(C)C)cc1Nc1cc(Nc2ccc(F)c(Cl)c2)ncn1  100 to 1000 nM
3  CC1C(Nc2ncnc3[nH]ncc23)CCCN1C(=O)CNc1ccccc1S(=O)(=O)N1CCCCC1 (stereo not drawn)        < 100 nM
